B1: SPDEF (parent)
chain: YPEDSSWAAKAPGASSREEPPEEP

- Variants of: B1
- EXPERIMENTAL_DETAILS: protein stability index of a GFP-peptide fusion (GPS, HEK-293T) (PSI 1-6); higher = more stable;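 further: lentivirally expressed fusions sorted by FACS into six bins by GFP to DsRed ratio, PSI derived from sequencing read proportions per bin multiplied by bin number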
- ASSAY_CONTEXT: c terminus: a fixed tail appended
Recorded protein stability index by entry

The following variants have reported results that may help.
RESIDUE_CHANGE | MEASURED_VALUE
E23D | 4.44
E3Q | 3.24
E23L | 3.45

Lookup: Please supply the value of reported protein stability index for the item `Y1S`
Found: 5.55

Lookup: // fetch protein stability index given entry `A8C`
Found: 4.09

Lookup: Tell us which protein stability index value is on record for `S16I`
Found: 3.86

Lookup: Output measured protein stability index for this item: `E3T`
Found: 3.82

Lookup: Quote protein stability index reported for `E18Y` please.
Found: 3.46

Lookup: Indicate its recorded protein stability index; the variant in question is `G13Q`
Found: 4.07

Lookup: Look up and state reported protein stability index for `S6N`
Found: 4.9
